Please respond with reported Kd for every item in the list.
# study.target: DD(E) (Homo sapiens, UniProt P02671+P02675+P02679)
# Construct: host or cells: purchased fibrinogen clotted with thrombin, digested with plasmin, then purified by ammonium sulfate cuts and Sephacryl S200
# Sequence (P02671 130-216): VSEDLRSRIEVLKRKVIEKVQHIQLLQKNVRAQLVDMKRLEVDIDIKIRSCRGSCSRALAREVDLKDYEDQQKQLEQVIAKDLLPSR
# Sequence (P02675 164-491): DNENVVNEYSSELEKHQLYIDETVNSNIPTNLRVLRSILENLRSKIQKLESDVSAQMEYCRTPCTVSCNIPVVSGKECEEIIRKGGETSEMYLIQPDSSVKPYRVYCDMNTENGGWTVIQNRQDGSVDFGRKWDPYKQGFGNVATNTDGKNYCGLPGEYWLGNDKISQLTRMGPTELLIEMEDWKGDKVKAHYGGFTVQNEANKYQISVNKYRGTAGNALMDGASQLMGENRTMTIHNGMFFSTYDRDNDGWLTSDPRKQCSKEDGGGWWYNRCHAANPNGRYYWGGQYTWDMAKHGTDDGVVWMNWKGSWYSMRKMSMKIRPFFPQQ
# Sequence (P02679 114-432): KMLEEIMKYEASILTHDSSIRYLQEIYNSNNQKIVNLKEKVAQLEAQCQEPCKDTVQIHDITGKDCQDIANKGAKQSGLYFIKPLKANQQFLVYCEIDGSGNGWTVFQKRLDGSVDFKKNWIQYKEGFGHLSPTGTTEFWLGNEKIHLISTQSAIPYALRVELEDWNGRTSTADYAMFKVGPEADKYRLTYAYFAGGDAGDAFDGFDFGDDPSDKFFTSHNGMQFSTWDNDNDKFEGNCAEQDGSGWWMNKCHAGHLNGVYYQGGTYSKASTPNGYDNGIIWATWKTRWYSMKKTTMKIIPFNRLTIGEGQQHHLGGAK
# Sequence (P02671 36-97): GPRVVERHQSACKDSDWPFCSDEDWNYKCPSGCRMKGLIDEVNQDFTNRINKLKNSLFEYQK
# Sequence (P02675 45-152): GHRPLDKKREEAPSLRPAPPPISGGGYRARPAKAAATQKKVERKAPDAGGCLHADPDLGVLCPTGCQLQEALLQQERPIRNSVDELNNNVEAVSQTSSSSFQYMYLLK
# Sequence (P02679 27-88): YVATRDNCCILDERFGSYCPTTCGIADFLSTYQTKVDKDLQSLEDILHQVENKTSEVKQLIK
# procedure.text: dissociation constant against fibrin-derived polypeptide DD(E)
# Format: binding
# condition.label: read-out: Kd DD(E)
# Procedure: The soluble fibrin-derived polypeptide DD(E) was prepared following a modification of a published method (Moskoitz and Budzynksi, Biochemistry, 33: 12937-12944 (1994) and references therein). Fibrinogen containing a Factor XIII trace impurity (1 g, Grade L; purchased from American Diagnostica) was dissolved in TBS buffer and dialyzed overnight against TBS containing 5 mM citrate. […] Dissociation constants were determined against DD(E) as described above.
Bridge positions count the residues as written; N and C are the ends. Peptide text beside a SMILES is read from it.
Numeric answer only, unit µM assumed.

Task: Could you share which Kd value was measured for CC(C)CC(N)C(=O)N1CCCC1C(=O)NC1CSSCC(C(=O)NC(CC(C)C)C(=O)NC(CC(=O)O)C(N)=O)NC(=O)C(C(C)O)NC(=O)CNC(=O)C(Cc2ccc(O)cc2)NC(=O)C(Cc2ccc(O)cc2)NC(=O)C(CC(=O)O)NC1=O (centres unmarked) ?
Output: 2.6

Task: # get_value(readout='Kd', item= CC(C)C[C@H](NC(=O)[C@@H]1CSSC[C@H](NC(=O)[C@@H]2CCCN2C(=O)[C@@H](N)CC(C)C)C(=O)N[C@@H](CC(=O)O)C(=O)N[C@@H](Cc2ccc(O)cc2)C(=O)N[C@@H](Cc2ccc(O)cc2)C(=O)NCC(=O)N[C@@H](C(C)C)C(=O)N1)C(=O)N[C@@H](CC(=O)O)C(N)=O [SEQ ID NO: 51, LPCDYYGVCLD] (H-LPCDYYGVCLD-NH2; disulfide 3-9) )
Output: 28

Task: Tell me the measured Kd of CC(C)C[C@H](NC(=O)[C@@H]1CSSC[C@H](NC(=O)[C@@H]2CCCN2C(=O)[C@@H](N)CC(C)C)C(=O)N[C@@H](CC(=O)O)C(=O)N[C@@H](C)C(=O)N[C@@H](Cc2ccc(O)cc2)C(=O)NCC(=O)N[C@@H]([C@@H](C)O)C(=O)N1)C(=O)N[C@@H](CC(=O)O)C(N)=O [SEQ ID NO: 43, LPCDAYGTCLD] (H-LPCDAYGTCLD-NH2; disulfide 3-9) , please.
Output: 4.5

Task: For the molecule shown here, CC(C)C[C@H](NC(=O)[C@@H]1CSSC[C@H](NC(=O)[C@H](C)NC(=O)[C@@H](N)CC(C)C)C(=O)N[C@@H](CC(=O)O)C(=O)N[C@@H](Cc2ccc(O)cc2)C(=O)N[C@@H](Cc2ccc(O)cc2)C(=O)NCC(=O)N[C@@H]([C@@H](C)O)C(=O)N1)C(=O)N[C@@H](CC(=O)O)C(N)=O [SEQ ID NO: 41, LACDYYGTCLD] (H-LACDYYGTCLD-NH2; disulfide 3-9) , give the reported Kd.
Output: 2.9

Task: Query (molecule): CC(C)C[C@H](NC(=O)[C@@H]1CSSC[C@H](NC(=O)[C@@H]2CCCN2C(=O)[C@@H](N)CC(C)C)C(=O)N[C@@H](CC(=O)O)C(=O)N[C@@H](Cc2ccc(O)cc2)C(=O)N[C@@H](Cc2ccc(O)cc2)C(=O)NCC(=O)N[C@@H](CO)C(=O)N1)C(=O)N[C@@H](CC(=O)O)C(N)=O [SEQ ID NO: 48, LPCDYYGSCLD] (H-LPCDYYGSCLD-NH2; disulfide 3-9) ; field requested: Kd
Output: 26

Task: Consider the molecule shown here: CC(C)C[C@H](NC(=O)[C@@H]1CSSC[C@H](NC(=O)[C@@H]2CCCN2C(=O)[C@@H](N)CC(C)C)C(=O)N[C@@H](CC(=O)O)C(=O)N[C@@H](Cc2ccc(O)cc2)C(=O)N[C@@H](Cc2ccc(O)cc2)C(=O)N[C@@H](C)C(=O)N[C@@H]([C@@H](C)O)C(=O)N1)C(=O)N[C@@H](CC(=O)O)C(N)=O What is its recorded Kd?
Output: 12.3

Task: Which Kd reading was recorded for the molecule CC[C@H](C)[C@H](NC(=O)[C@H](Cc1c[nH]cn1)NC(=O)[C@@H]1CSSC[C@H](NC(=O)[C@H](Cc2c[nH]cn2)NC(=O)[C@H](Cc2ccccc2)NC(=O)[C@@H](N)Cc2c[nH]c3ccccc23)C(=O)N2CCC[C@H]2C(=O)N[C@@H](Cc2ccc(O)cc2)C(=O)N[C@@H](CC(=O)O)C(=O)N[C@@H](CC(C)C)C(=O)N1)C(=O)N[C@@H](CC(C)C)C(N)=O [SEQ ID NO: 21, W F H C P Y D L C H I L] (H-WFHCPYDLCHIL-NH2; disulfide 4-9; N-terminus and C-terminus assumed) ?
Output: 2.63

Task: Report Kd for CC(C)C[C@H](NC(=O)[C@@H]1CSSC[C@H](NC(=O)[C@@H]2CCCN2)C(=O)N[C@@H](CC(=O)O)C(=O)N[C@@H](Cc2ccc(O)cc2)C(=O)N[C@@H](Cc2ccc(O)cc2)C(=O)NCC(=O)N[C@@H]([C@@H](C)O)C(=O)N1)C(N)=O [compound 32] (H-PCDYYGTCL-NH2; disulfide 2-8) please.
Output: 50

Task: For the molecule CC[C@H](C)[C@H](NC(=O)[C@H](Cc1c[nH]c2ccccc12)NC(=O)[C@@H]1CSSC[C@H](NC(=O)[C@H](CCC(=O)O)NC(=O)[C@@H](N)Cc2c[nH]c3ccccc23)C(=O)N2CCC[C@H]2C(=O)N[C@@H](Cc2ccc(O)cc2)C(=O)NCC(=O)N[C@@H](CC(C)C)C(=O)N1)C(N)=O [SEQ ID NO: 63, WECPYGLCWI] (H-WECPYGLCWI-NH2; disulfide 3-8; N-terminus and C-terminus assumed) , what Kd is on record?
Output: 3.87

Data provenance is patent US20050261472A1.
